- recordedConditions: in n-butanol, 293.15 K
parameterMeasured: solubility (mole fraction)

> print(dat)
                                   compound           parametermeasured  observed
1  O=C(NC(Cc1cc(=O)[nH]c2ccccc12)C(=O)O)c1ccc(Cl)cc1 (stereo unspecified)  solubility (mole fraction)  6.51e-05

====

- recordedConditions: in n-butanol, 308.15 K
parameterMeasured: solubility (mole fraction)

> print(dat)
                                   compound  observed
1  O=C(NC(Cc1cc(=O)[nH]c2ccccc12)C(=O)O)c1ccc(Cl)cc1 (stereo unspecified)  0.000107

====

- recordedConditions: in acetone, 298.15 K
parameterMeasured: solubility (mole fraction)

> print(dat)
                                   compound  observed
1  O=C(NC(Cc1cc(=O)[nH]c2ccccc12)C(=O)O)c1ccc(Cl)cc1 (stereo unspecified)  1.43e-05
